- subject-of-test: Hexose transporter 1 (Plasmodium falciparum) (UniProt O97467)
- assay-overview: ST_JUDE_LEISH: Cytotoxicity at 2uM final concentration against transgenic Leishmania Mexicana promastigotes LmPfHT that are glucose transport deficient and complemented with the Plasmodium falciparum hexose transporter. Activity is measured by DNA content using SYBR green in vitro
- Type: functional
measured-quantity: inhibition (%)
Give the value, in units of %, as a plain number.

compound: CC(=O)Oc1c(C2C=CCCC2)c(OC(C)=O)c2ccccc2c1OC(C)=O (configuration not stated)
subject-of-test: Hexose transporter 1 (Plasmodium falciparum) (UniProt O97467)
measured-quantity: inhibition
reading: 3.27

(Q) I am curious: what inhibition value has been reported for COc1cc(C=Cc2ccc3ccccc3n2)cc(Br)c1OCC(=O)N(C)C ?
(A) -1.14

(Q) I am curious: what inhibition value has been reported for CC(C)Cn1cc(C2CCN(CCN3CCC(CNC(=O)c4ccc(-c5ccc(C(F)(F)F)cc5)cc4)CC3)CC2)c2ccccc21 ?
(A) 3.07

(Q) I am curious: what inhibition value has been reported for CCCCN(CCCC)CCOc1cc2c(cc1OC)CCN2C(=O)/C=C/c1ccccc1Cl ?
(A) 1.58

(Q) I am curious: what inhibition value has been reported for OC(CNCc1ccccc1OCc1ccccc1)c1cc(C(F)(F)F)cc(C(F)(F)F)c1 (configuration not stated) ?
(A) 10.9

(Q) I am curious: what inhibition value has been reported for CC1(C(=O)Nc2ccc([N+](=O)[O-])cc2O)CC2c3ccccc3C1c1ccccc12 (configuration not stated) ?
(A) 3.79

(Q) I am curious: what inhibition value has been reported for O=C(Nc1cccc2ccccc12)N1CCc2cc3nccc(N4CCN5CCC[C@H]5C4)c3cc21 ?
(A) 2.82

(Q) I am curious: what inhibition value has been reported for N#Cc1ccc(CN2CCC(NC(=O)c3ccc(-c4nnc(-c5cccc6ccccc56)o4)cc3)CC2)cc1 ?
(A) 2.48

(Q) I am curious: what inhibition value has been reported for Oc1ccc(CCNc2nc(NCCCOc3ccccc3-c3ccncc3)nc(N3CCNCC3)n2)cc1 ?
(A) 5.15

(Q) I am curious: what inhibition value has been reported for COc1cc(C(=O)NC2CCN(Cc3ccccc3)CC2)ccc1-c1cc2cc(Cl)c(Cl)cc2[nH]1 ?
(A) 4.32

(Q) I am curious: what inhibition value has been reported for COc1cccc(-c2cc(C(=O)NC3CCC(N4CCC(c5ccccc5C)CC4)CC3)[nH]n2)c1 (configuration not stated) ?
(A) 14.6

(Q) I am curious: what inhibition value has been reported for Cc1cc(NCCC(=O)NCCc2ccccc2)nc(NCCc2ccc(F)cc2)n1 ?
(A) 3.87
